Source listed as ChEMBL document CHEMBL1126266.

Catalogue of Change readings, one per entry.
Tested on: Rattus norvegicus
Assay: Percent change in 5-HTP levels in rat brain following 1 mg/kg administration.
All answers are understood in %, so give the number only.

Solved entries:
MOLECULE: CCCN(CCC)C1Cc2cccc3c2N(CC(=O)N3)C1.Cl (centres undefined)
MEASURED_METRIC: Change
RESULT_NUMBER: 16
--
MOLECULE: CCCN(CCC)C1Cc2cccc3ncn(c23)C1 (centres undefined)
MEASURED_METRIC: Change
RESULT_NUMBER: -7
--
MOLECULE: CCCN(CCC)C1Cc2cccc3c2N(CC3)C1.O=C(O)/C=C/C(=O)O (centres undefined)
MEASURED_METRIC: Change
RESULT_NUMBER: -13
--
MOLECULE: CCCN(CCC)C1Cc2cccc3c2N(C1)C(=O)OC3.Cl (centres undefined)
MEASURED_METRIC: Change
RESULT_NUMBER: -13
--
MOLECULE: CCCN(CCC)C1Cc2cccc3c2N(C1)C(=O)C3=O (centres undefined)
MEASURED_METRIC: Change
RESULT_NUMBER: -7

For the molecule shown here, CCCN(CCC)C1Cc2cccc3c2N(C1)C(=O)NC3 (centres undefined) , give the reported Change.
-45
